Taken from a melting point compilation (Tetko et al.).

In this section we review reported melting point values for a set of molecules.

Solved entries (count: 4):
{"columns": ["molecule", "quantity_kind", "result"],
 "data": [
  ["CC(=NO)c1ccc(Cl)c(Cl)c1", "melting point", "108 to 111 °C"],
  ["OC1COC(Oc2ccc3cc(Br)ccc3c2)C(O)C1O (stereo unspecified)", "melting point", "190 to 196 °C"],
  ["O=C(c1ccc(F)cc1)C(F)(F)F", "melting point", "24 to 27 °C"],
  ["CC(=O)Nc1ccccc1-c1cc2ccccc2[nH]1", "melting point", "151 to 152 °C"]
]}

Problem: Quick one: give measured melting point for C[C@@]12CC[C@@H]3[C@H](CC[C@]4(C)C(=O)CC[C@]34C)[C@@]1(C)CCC(=O)C2
Solution: 184 to 186 °C

Problem: Quick one: give measured melting point for COc1ccc(C2(C)CCc3oc4ccc(Cl)cc4c3-c3oc(C)cc32)cc1 (stereo unspecified)
Solution: 144 °C

Problem: Quick one: give measured melting point for Cn1ccnc1I
Solution: 87 to 89 °C

Problem: Quick one: give measured melting point for CC(C)(O)C#CC(C)(C)O
Solution: 95 °C

Problem: Quick one: give measured melting point for CC(=O)CCc1ccc(O)cc1
Solution: 82 to 84 °C

* * *

quantity_kind: melting point

Solved entries (count: 5):
{"columns": ["compound", "melting point"],
 "data": [
  ["COC(=O)Cc1csc2ccc(Cl)cc12", "55 to 56 °C"],
  ["N#CCCn1c(=O)oc2ccccc21", "118 to 120 °C"],
  ["COc1cccc(CO)c1OC", "48 to 51 °C"],
  ["Cc1nc(-c2ccccc2)ncc1CO", "85 to 86 °C"],
  ["O=C(CBr)c1ccc(Cl)c([N+](=O)[O-])c1", "83 to 85 °C"]
]}

Problem: Quick one: give measured melting point for O=C1[C@H]2Cc3ccccc3C[C@H]2C(=O)[C@@H]2Cc3ccccc3C[C@H]12
Solution: 224 to 227 °C

Problem: Quick one: give measured melting point for COc1ccc(NC(=O)C=CC(=O)O)cc1
Solution: 190 to 193 °C

Problem: Quick one: give measured melting point for COc1cc(C=C(O)C(F)(F)C(F)(F)F)nc(OC)n1
Solution: 58 to 60 °C

Problem: Quick one: give measured melting point for CN(C)c1ccc(CNC2=CC(=O)c3ccccc3C2=O)cc1
Solution: 165 to 167 °C

Problem: Quick one: give measured melting point for Cc1nc(-c2ccccc2)sc1C(=O)CBr
Solution: 117 to 118 °C

Problem: Quick one: give measured melting point for Nc1c(Cl)cc(C(F)(F)F)cc1[N+](=O)[O-]
Solution: 66 to 68 °C

Problem: Quick one: give measured melting point for CC12CCC3C(C(=O)CC4CC(=O)CCC43C)C1CCC2=O (stereo not drawn)
Solution: 229 to 234 °C

Problem: Quick one: give measured melting point for Nc1ccc(OC(F)(F)F)c(Cl)c1
Solution: 30 °C

Problem: Quick one: give measured melting point for O=C(O)c1cn2nc(Cl)ccc2n1
Solution: 248 to 249 °C

Problem: Quick one: give measured melting point for COC1CCC(CC(=O)O)CC1 (stereo not drawn)
Solution: 78 °C

Problem: Quick one: give measured melting point for O=C(Oc1ccccc1)c1cc2ccccc2cc1O
Solution: 128 to 133 °C

Problem: Quick one: give measured melting point for O[C@@H]1C#CCCCCC#C[C@@H](O)CC1
Solution: 154 °C

Problem: Quick one: give measured melting point for Nc1c(C=O)ccc2c1C(=O)c1ccccc1C2=O
Solution: 228 to 234 °C

Problem: Quick one: give measured melting point for O=Cc1ccc(N2CCOCC2)cc1
Solution: 66 °C

Problem: Quick one: give measured melting point for CC(C)(C)OC(=O)C(C)(C)ON=C(C(=O)O)c1csc(N)n1
Solution: 180 °C

* * *

quantity_kind: melting point

Solved entries (count: 2):
{"columns": ["molecule", "result"],
 "data": [
  ["O=C(c1ccccn1)C(O)c1ccccn1 (stereo not drawn)", "151 to 158 °C"],
  ["C/C(=N\\CCc1ccccn1)c1c(O)c2ccccc2n(-c2ccccc2)c1=O", "219 to 220 °C"]
]}

Moving on to the next molecule.
Problem: Quick one: give measured melting point for CC(C)(C)c1cc(C(C)(C)C)n(-c2ccc(N)cc2)n1
Solution: 205 to 207 °C

* * *

In this section we review reported melting point values for a set of compounds.

Solved entries (count: 2):
{"columns": ["molecule_smiles", "quantity_kind", "result"],
 "data": [
  ["CC(C)[Si](C(C)C)(C(C)C)n1ccc2c(Br)cccc21", "melting point", "62 to 65 °C"],
  ["O=[N+]([O-])c1cc(Br)cnc1Cl", "melting point", "64 to 67 °C"]
]}

Moving on to the next compound.
Problem: Quick one: give measured melting point for O=C(O)c1n[nH]c2ccccc12
Solution: 259 to 262 °C

* * *

quantity_kind: melting point

Solved entries (count: 3):
{"columns": ["molecule_smiles", "result"],
 "data": [
  ["O=P(c1ccc(Cl)cc1)(c1ccc(Cl)cc1)c1ccc(Cl)cc1", "176 to 178 °C"],
  ["N#Cc1ccc(F)c([N+](=O)[O-])c1", "92 °C"],
  ["CSc1nccc(-c2ccc(S(=O)(=O)Cl)s2)n1", "129 to 131 °C"]
]}

Problem: Quick one: give measured melting point for Cc1cccc(C)c1C#N
Solution: 90 °C

Problem: Quick one: give measured melting point for FC(F)(F)c1ccccc1CBr
Solution: 34 to 35 °C

Problem: Quick one: give measured melting point for CC(=O)Nc1nccs1
Solution: 204 to 208 °C

Problem: Quick one: give measured melting point for N#Cc1cnn2c(C(F)(F)F)cc(C(F)(F)F)nc12
Solution: 75 to 77 °C

* * *

In this section we review reported melting point values for a set of molecules.

Solved entries (count: 2):
{"columns": ["molecule", "melting point"],
 "data": [
  ["CCOC(=O)c1sc(SC)c2c1CCCC2O (stereo unspecified)", "119 to 122 °C"],
  ["Cc1cc(C)c(OC(=O)C(F)(F)F)cc1OC(=O)C(F)(F)F", "121 °C"]
]}

Problem: Quick one: give measured melting point for c1ccc(N2CSc3nnc(-c4cccnc4)n3C2)nc1
Solution: 278 to 280 °C

Problem: Quick one: give measured melting point for CC(=O)Nc1cc([N+](=O)[O-])ccc1Nc1ccc(C)cc1
Solution: 176 °C

Problem: Quick one: give measured melting point for c1ccc2cc3c(ccc4cc5ccccc5cc43)cc2c1
Solution: 257 °C

Problem: Quick one: give measured melting point for CC(C)(C)C(C)(C)Cl
Solution: 136 °C

* * *

In this section we review reported melting point values for a set of compounds.

{"columns": ["molecule_smiles", "melting point"],
 "data": [
  ["O=C1SC(Cl)(Cl)c2nc3c(cc21)C(=O)SC3(Cl)Cl", "178 to 185 °C"]
]}

Problem: Quick one: give measured melting point for CCOC(CN1C(=O)c2ccccc2C1=O)OCC
Solution: 72 to 74 °C

Problem: Quick one: give measured melting point for N#CSCC(=O)c1ccc(Cl)cc1
Solution: 135 to 136 °C

Problem: Quick one: give measured melting point for Brc1ccc2ncsc2c1
Solution: 53 to 54 °C

* * *

quantity_kind: melting point

{"columns": ["molecule_smiles", "melting point"],
 "data": [
  ["O=[N+]([O-])c1ccc(Cl)c(N=C=S)c1", "67 to 70 °C"],
  ["CCOC(=O)C(C#N)=C(N)c1cc2cc(Br)cc(OC)c2oc1=O", "274 to 276 °C"],
  ["COc1cc2c(cc1O)C=NCC2", "187 to 191 °C"],
  ["CSc1nsc(SC)c1C(N)=O", "214 to 216 °C"],
  ["O=C1OC(=O)c2c1cccc2[N+](=O)[O-]", "160 to 165 °C"],
  ["Cc1cncc(Oc2cccc(N)c2)n1", "59.5 to 61 °C"]
]}

Problem: Quick one: give measured melting point for Cc1noc(N)c1C
Solution: 119 to 120 °C

Problem: Quick one: give measured melting point for O=S(=O)(c1ccccc1)n1cc(Br)c2ccccc21
Solution: 120 to 121 °C

Problem: Quick one: give measured melting point for CC(=O)Nc1ccc2c(c1)CCC2
Solution: 106 to 108 °C

Problem: Quick one: give measured melting point for CC(C)N(C=O)C(C)C
Solution: 10 to 11 °C

Problem: Quick one: give measured melting point for BrCc1cc(CBr)c(CBr)cc1CBr
Solution: 156 to 162 °C

* * *

quantity_kind: melting point

{"columns": ["compound", "melting point"],
 "data": [
  ["Brc1cccc(Cn2ccnc2)c1", "62 to 70 °C"]
]}

Problem: Quick one: give measured melting point for O=C1[C@H]2CC3=C(CC=CC3)C[C@H]2C(=O)[C@H]2CC3=C(CC=CC3)C[C@@H]12
Solution: 300 to 302 °C

Problem: Quick one: give measured melting point for CCCCCCCCCCCC(=O)N(C)CC(=O)O
Solution: 44 to 48 °C

Problem: Quick one: give measured melting point for CC1(C)Cc2cccc(C=O)c2O1
Solution: 81 to 83 °C

Problem: Quick one: give measured melting point for O=S(c1ccc(Cl)cc1)c1ccc(Cl)cc1
Solution: 140 to 145 °C

Problem: Quick one: give measured melting point for CCOC(=O)c1ccc(Cl)c([N+](=O)[O-])c1
Solution: 57 to 61 °C

Problem: Quick one: give measured melting point for Cc1ccc(S(=O)(=O)OCC2COC(C)(C)O2)cc1 (stereo unspecified)
Solution: 29 to 31 °C

Problem: Quick one: give measured melting point for CNC(=O)Oc1cc(C(C)(C)C)cc(C(C)(C)C)c1
Solution: 103 °C

Problem: Quick one: give measured melting point for Fc1ccc(CN2CCNCC2)cc1
Solution: 64 to 65 °C

Problem: Quick one: give measured melting point for COc1cc(C=C(C)[N+](=O)[O-])cc(OC)c1
Solution: 87 to 89 °C

Problem: Quick one: give measured melting point for O=C(O)c1cccc(COc2ccccc2)c1
Solution: 118 to 119 °C

Problem: Quick one: give measured melting point for CC(C(C)P(c1ccccc1)c1ccccc1)P(c1ccccc1)c1ccccc1 (stereo unspecified)
Solution: 104 to 109 °C

Problem: Quick one: give measured melting point for Cc1cc2ccccc2cc1CC(F)(F)F
Solution: 75 to 75.5 °C

Problem: Quick one: give measured melting point for O=S(=O)(Cl)c1ccc(-c2ccc(Cl)c(Cl)c2)cc1
Solution: 105 to 106 °C

Problem: Quick one: give measured melting point for CC(C)CCCC(C)C1CCC2C3CC=C4CC(Cl)CCC4(C)C3CCC12C (stereo unspecified)
Solution: 97 °C

Problem: Quick one: give measured melting point for CC(=O)c1sc(-c2ccc(C(C)(C)C)cc2)cc1N
Solution: 179 to 181 °C

Problem: Quick one: give measured melting point for COC(=O)[C@@H]1[C@H](c2ccccc2)C(C#N)=C(C(SC)SC)[C@@]1(O)c1ccccc1
Solution: 164 to 165 °C

Problem: Quick one: give measured melting point for NNc1ncnc2scc(-c3ccccc3)c12
Solution: 150 to 152 °C

Problem: Quick one: give measured melting point for COC(=O)c1ccc2cc(Br)ccc2c1
Solution: 123 to 126 °C

Problem: Quick one: give measured melting point for CC12CCC(/C(=C/Nc3ccccc3)C1=O)C2(C)C (stereo unspecified)
Solution: 165 to 167 °C

Problem: Quick one: give measured melting point for O=C(O)[C@@H](O)CCN1C(=O)c2ccccc2C1=O
Solution: 157 to 159 °C
